This collection of values is drawn from patent US20090137499A1.

Molecular target: human SGLT1 (Homo sapiens)
Sequence (P13866 1-664): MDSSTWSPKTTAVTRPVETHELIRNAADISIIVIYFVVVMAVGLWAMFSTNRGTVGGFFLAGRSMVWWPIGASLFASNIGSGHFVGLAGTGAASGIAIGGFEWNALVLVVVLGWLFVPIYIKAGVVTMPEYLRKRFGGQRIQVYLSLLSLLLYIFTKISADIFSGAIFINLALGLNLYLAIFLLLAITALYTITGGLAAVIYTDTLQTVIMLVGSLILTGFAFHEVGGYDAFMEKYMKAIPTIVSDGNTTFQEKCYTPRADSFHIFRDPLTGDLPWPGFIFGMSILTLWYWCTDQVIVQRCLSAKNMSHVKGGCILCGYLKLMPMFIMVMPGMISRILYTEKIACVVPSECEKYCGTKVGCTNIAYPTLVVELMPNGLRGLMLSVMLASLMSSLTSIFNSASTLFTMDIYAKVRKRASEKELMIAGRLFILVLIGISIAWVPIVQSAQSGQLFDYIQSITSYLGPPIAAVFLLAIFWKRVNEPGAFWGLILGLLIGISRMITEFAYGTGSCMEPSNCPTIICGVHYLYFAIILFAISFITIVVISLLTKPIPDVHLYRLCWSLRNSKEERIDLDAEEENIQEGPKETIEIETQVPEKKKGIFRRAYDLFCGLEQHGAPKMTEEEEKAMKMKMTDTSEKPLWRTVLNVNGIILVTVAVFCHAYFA
Assay: Determination of SGLT1 inhibiting activity using human SGLT1 expressing cell ([14C]-α-methyl-D-glucopyranoside uptake)
Conditions: HEK-SGLT1 cells, 1 mM [14C]-α-methyl-D-glucopyranoside, 37° C., 30 min
pIC50: −log10 of the molar value.
Some compounds, each annotated with its measured pIC50.

COMPOUND_STRUCTURE: COc1ccc(Cc2c(OC)cc(CO)cc2O[C@@H]2O[C@H]([C@@H](C)O)[C@@H](O)[C@H](O)[C@H]2O)cc1
pIC50: 6.85

COMPOUND_STRUCTURE: COc1ccc(Cc2c(C)cc(C)cc2O[C@@H]2O[C@H]([C@@H](C)O)[C@@H](O)[C@H](O)[C@H]2O)cc1F
pIC50: 6.64

COMPOUND_STRUCTURE: C[C@@H](O)[C@H]1O[C@@H](Oc2cc(CO)ccc2Cc2ccc(CCCO)cc2)[C@H](O)[C@@H](O)[C@@H]1O
pIC50: 6.91

COMPOUND_STRUCTURE: COc1ccc(Cc2cc(CO)cnc2O[C@@H]2O[C@H]([C@@H](C)O)[C@@H](O)[C@H](O)[C@H]2O)cc1
pIC50: 6.68

COMPOUND_STRUCTURE: CCCOc1ccc(Cc2c(F)cc(CO)cc2O[C@@H]2O[C@H]([C@@H](C)O)[C@@H](O)[C@H](O)[C@H]2O)cc1
pIC50: 6.55

COMPOUND_STRUCTURE: CCc1ccc(Cc2c(C)cc(CO)cc2O[C@@H]2O[C@H]([C@@H](C)O)[C@@H](O)[C@H](O)[C@H]2O)cc1
pIC50: 7.09

COMPOUND_STRUCTURE: Cc1ccc(Cc2c(F)cc(CO)cc2O[C@@H]2O[C@H]([C@@H](C)O)[C@@H](O)[C@H](O)[C@H]2O)cc1
pIC50: 7.28

COMPOUND_STRUCTURE: COc1ccc(Cc2ccc(CO)cc2O[C@@H]2O[C@H]([C@@H](C)O)[C@@H](O)[C@H](O)[C@H]2O)cc1
pIC50: 7.27

###

Molecular target: UniProtKB P31639
Sequence (P31639 1-672): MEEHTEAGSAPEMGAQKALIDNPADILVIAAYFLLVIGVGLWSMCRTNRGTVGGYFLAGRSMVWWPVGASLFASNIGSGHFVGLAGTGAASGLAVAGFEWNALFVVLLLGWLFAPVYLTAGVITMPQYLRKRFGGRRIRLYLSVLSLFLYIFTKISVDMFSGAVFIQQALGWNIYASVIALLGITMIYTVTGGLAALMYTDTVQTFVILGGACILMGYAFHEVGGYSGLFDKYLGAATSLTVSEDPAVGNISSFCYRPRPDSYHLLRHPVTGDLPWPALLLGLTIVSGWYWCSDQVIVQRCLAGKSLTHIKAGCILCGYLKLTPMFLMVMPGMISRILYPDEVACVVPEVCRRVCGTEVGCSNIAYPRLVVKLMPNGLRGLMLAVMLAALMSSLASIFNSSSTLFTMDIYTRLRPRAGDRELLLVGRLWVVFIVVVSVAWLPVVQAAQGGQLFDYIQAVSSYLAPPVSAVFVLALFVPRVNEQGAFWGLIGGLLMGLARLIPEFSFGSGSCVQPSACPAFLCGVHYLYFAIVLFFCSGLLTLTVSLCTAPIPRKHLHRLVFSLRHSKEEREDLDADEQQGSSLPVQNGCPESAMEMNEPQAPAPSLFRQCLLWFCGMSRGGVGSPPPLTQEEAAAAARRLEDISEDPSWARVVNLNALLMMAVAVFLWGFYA
Assay: Determination of SGLT2 inhibiting activity using human SGLT2 expressing cell ([14C]-α-methyl-D-glucopyranoside uptake)
Settings: HEK-SGLT2 cells, 1 mM [14C]-α-methyl-D-glucopyranoside, 37° C., 30 min
Description: Determination of SGLT2 Inhibiting Activity Using Human SGLT2 Expressing Cell 1) Preparation of Vector Expressing Human SGLT2 cDNA in Animal Cell Amplification was performed by PCR using human SGLT2 cDNA clone (Origene: Clone Number, TC303267; GenBank accession number, NM 003041) as a template. The sense oligonucleotide primer for PCR was 5′-[…]-3′ (Primer 3: SEQ ID NO: 3 in the sequence listing), and the antisense oligonucleotide primer was 5′-[…]-3′ (Primer 4: SEQ ID NO: 4 in the sequence listing). […]
pIC50: −log10 of the molar value.

COMPOUND_STRUCTURE: COc1ccc(Cc2ccc(N)cc2O[C@@H]2O[C@H](CO)[C@@](C)(O)[C@H](O)[C@H]2O)cc1
pIC50: 7.89
//
COMPOUND_STRUCTURE: CC(C)Oc1ccc(Cc2c(F)cc(CO)cc2O[C@@H]2O[C@H]([C@@H](C)O)[C@@H](O)[C@H](O)[C@H]2O)cc1
pIC50: 7.42
//
COMPOUND_STRUCTURE: CCc1ccc(Cc2ccc(CCO)cc2O[C@@H]2O[C@H]([C@@H](C)O)[C@@H](O)[C@H](O)[C@H]2O)cc1
pIC50: 7.52
//
COMPOUND_STRUCTURE: COc1ccc(Cc2ccc(CO)cc2O[C@@H]2O[C@H]([C@@H](C)O)[C@@H](O)[C@H](O)[C@H]2O)c(F)c1
pIC50: 8.03
//
COMPOUND_STRUCTURE: C[C@@H](O)[C@H]1O[C@@H](Oc2cc(CO)ccc2Cc2ccc(C3CC3)cc2)[C@H](O)[C@@H](O)[C@@H]1O
pIC50: 7.49
//
COMPOUND_STRUCTURE: CCc1ccc(Cc2c(C)cc(CO)cc2O[C@@H]2O[C@H]([C@@H](C)O)[C@@H](O)[C@H](O)[C@H]2O)cc1
pIC50: 7.46
//
COMPOUND_STRUCTURE: C[C@@H](O)[C@H]1O[C@@H](Oc2cc(CO)cc(F)c2Cc2ccc(C3CC3)cc2)[C@H](O)[C@@H](O)[C@@H]1O
pIC50: 7.72
//
COMPOUND_STRUCTURE: Cc1ccc(Cc2ccc(CO)cc2O[C@@H]2O[C@H]([C@@H](C)O)[C@@H](O)[C@H](O)[C@H]2O)cc1
pIC50: 7.77
//
COMPOUND_STRUCTURE: COc1ccc(Cc2ccc(CO)cc2O[C@@H]2O[C@H]([C@@H](C)O)[C@@H](O)[C@H](O)[C@H]2O)cc1
pIC50: 8.03
//
COMPOUND_STRUCTURE: COc1ccc(Cc2c(C)cc(C)cc2O[C@@H]2O[C@H]([C@@H](C)O)[C@@H](O)[C@H](O)[C@H]2O)cc1F
pIC50: 7.40
//
COMPOUND_STRUCTURE: COc1ccc(Cc2cc(CO)cnc2O[C@@H]2O[C@H]([C@@H](C)O)[C@@H](O)[C@H](O)[C@H]2O)cc1
pIC50: 7.77
//
COMPOUND_STRUCTURE: COc1ccc(Cc2c(Cl)cc(CO)cc2O[C@@H]2O[C@H]([C@H](C)O)[C@@H](O)[C@H](O)[C@H]2O)cc1
pIC50: 7.96
//
COMPOUND_STRUCTURE: COc1ccc(Cc2c(C)cc(CO)cc2O[C@@H]2O[C@H]([C@@H](C)O)[C@@H](O)[C@H](O)[C@H]2O)cc1
pIC50: 7.96
//
COMPOUND_STRUCTURE: COc1ccc(Cc2c(F)cc(CO)cc2O[C@@H]2O[C@H](CO)C[C@H](O)[C@H]2O)cc1
pIC50: 7.70
